System: LNCAP
Experiment: MTT cell viability assay, LNCAP
Format: cell-based, human
Details: Homo sapiens, 72 h, Prostate, 3 days culture
readout-type: IC50 (µM)

compound	endpoint-value
COc1ccc(-c2oc3c(CC=C(C)C)c(O)cc(O)c3c(=O)c2O)cc1 [Icaritin]	5.3

* * *

System: MDA-MB-231
Assay: MTT cell viability assay, MDA-MB-231
Assay type: cell-based, human
Conditions: MDA-MB-231, Breast, 3 days culture
readout-type: IC50 (µM)

structure-as-smiles	measurement-units	endpoint-value
CC(C)=CCc1c(O)cc(O)c2c(=O)c(O)c(-c3ccc(O)cc3)oc12	µM	6.5

* * *

Test system: NCI-H23
Experiment: MTT cell viability assay, NCI-H23
Format: cell-based, human
Settings: NCI-H23, Lung, 3 days culture
pIC50: −log10 of the molar value.
readout-type: pIC50

compound	endpoint-value
CC(C)=CCc1c(O)cc(O)c2c(=O)c(O)c(-c3ccc(O)cc3)oc12 [Desmethylicaritin]	5.19

* * *

Tested on: SK-MEL-5
Test: MTT cell viability assay, SK-MEL-5
Format: cell-based, human
Conditions: Homo sapiens, 72 h, SK-MEL-5, Skin, 3 days culture
pIC50: −log10 of the molar value.
readout-type: pIC50

structure-as-smiles	target-under-test	endpoint-value
COc1ccc(-c2oc3c(CC=C(C)C)c(O)cc(O)c3c(=O)c2O)cc1	SK-MEL-5	5.00

* * *

Test system: A549
Assay: MTT cell viability assay, A549
Format: cell-based, human
Details: A549, Lung, 3 days culture

molecule	target-under-test	measurement-units	IC50
CC(C)=CCc1c(O)cc(O)c2c(=O)c(O)c(-c3ccc(O)cc3)oc12 [Desmethylicaritin]	A549	µM	10.7

* * *

System: CCL-225
Experiment: MTT cell viability assay, CCL-225
Type: cell-based, human
Settings: CCL-225, Colon, 3 days culture

structure-as-smiles	target-under-test	IC50, µM
CC(C)=CCc1c(O)cc(O)c2c(=O)c(O)c(-c3ccc(O)cc3)oc12	CCL-225	8.9

* * *

System: SKOV3
Assay: MTT cell viability assay, SKOV3
Type: cell-based, human
Conditions: SKOV3, Ovary, 3 days culture
readout-type: IC50

structure-as-smiles	endpoint-value
CC(C)=CCc1c(O)cc(O)c2c(=O)c(O)c(-c3ccc(O)cc3)oc12	10.4 µM

* * *

System: PC3
Experiment: MTT cell viability assay, PC3
Format: cell-based, human
Conditions: Homo sapiens, PC-3, 72 h, PC3, Prostate, 3 days culture
pIC50: −log10 of the molar value.
readout-type: pIC50

structure-as-smiles	endpoint-value
COc1ccc(-c2oc3c(CC=C(C)C)c(O)cc(O)c3c(=O)c2O)cc1	5.03

* * *

Tested on: LoVo
Test: MTT cell viability assay, LoVo
Type: cell-based, human
Conditions: Colon, 3 days culture
readout-type: IC50

compound	readout-type	endpoint-value
CC(C)=CCc1c(O)cc(O)c2c(=O)c(O)c(-c3ccc(O)cc3)oc12 [Desmethylicaritin]	IC50	10.5 µM

* * *

Tested on: HCT-116
Assay: MTT cell viability assay, HCT-116
Type: cell-based, human
Details: HCT-116, Colon, 3 days culture
pIC50: −log10 of the molar value.
readout-type: pIC50

structure-as-smiles	endpoint-value
CC(C)=CCc1c(O)cc(O)c2c(=O)c(O)c(-c3ccc(O)cc3)oc12	5.16

* * *

Tested on: SKOV3
Test: MTT cell viability assay, SKOV3
Assay type: cell-based, human
Details: Homo sapiens, SK-OV-3, 72 h, SKOV3, Ovary, 3 days culture
pIC50: −log10 of the molar value.

structure-as-smiles	pIC50
COc1ccc(-c2oc3c(CC=C(C)C)c(O)cc(O)c3c(=O)c2O)cc1	5.01

* * *

Test system: SN12C
Assay: MTT cell viability assay, SN12C
Assay type: cell-based, human
Details: Kidney, 3 days culture
readout-type: IC50 (µM)

compound	endpoint-value
CC(C)=CCc1c(O)cc(O)c2c(=O)c(O)c(-c3ccc(O)cc3)oc12 [Desmethylicaritin]	15.9

* * *

Tested on: LoVo
Experiment: MTT cell viability assay, LoVo
Assay type: cell-based, human
Details: Homo sapiens, 72 h, Colon, 3 days culture
pIC50: −log10 of the molar value.
readout-type: pIC50

structure-as-smiles	readout-type	endpoint-value
COc1ccc(-c2oc3c(CC=C(C)C)c(O)cc(O)c3c(=O)c2O)cc1	pIC50	4.99

* * *

Test system: 786-O
Assay: MTT cell viability assay, 786-O
Assay type: cell-based, human
Details: Homo sapiens, 786-0, 72 h, Kidney, 3 days culture

structure-as-smiles	IC50
COc1ccc(-c2oc3c(CC=C(C)C)c(O)cc(O)c3c(=O)c2O)cc1	10.5 µM

* * *

Tested on: ACHN
Assay: MTT cell viability assay, ACHN
Format: cell-based, human
Conditions: Kidney, 3 days culture
pIC50: −log10 of the molar value.
readout-type: pIC50

compound	endpoint-value
CC(C)=CCc1c(O)cc(O)c2c(=O)c(O)c(-c3ccc(O)cc3)oc12 [Desmethylicaritin]	5.01

* * *

System: G-361
Experiment: MTT cell viability assay, G-361
Assay type: cell-based, human
Conditions: Homo sapiens, 72 h, G-361, Skin, 3 days culture
Experimental: 26 cancer cell lines were grown in normal growth medium in the presence of different concentrations Icaritin or Desmethylicaritin. After culture for 3 days, the cell viability was then measured by an MTT assay. […] Some EC50s were lower than 10 uM for these two compounds. […] Whereas, normal human mammary gland epithelial cells (MCF10A) were not sensitive to Icaritin and Desmethylicaritin. These cells grew well when treated with these two compounds at a concentration of 50 uM.
pIC50: −log10 of the molar value.

structure-as-smiles	pIC50
COc1ccc(-c2oc3c(CC=C(C)C)c(O)cc(O)c3c(=O)c2O)cc1	5.16

# credit: patent US20080214844A1
